Please consider the recorded Ki for UniProtKB P19492 in what follows.
Sequence (P19492 whole entry): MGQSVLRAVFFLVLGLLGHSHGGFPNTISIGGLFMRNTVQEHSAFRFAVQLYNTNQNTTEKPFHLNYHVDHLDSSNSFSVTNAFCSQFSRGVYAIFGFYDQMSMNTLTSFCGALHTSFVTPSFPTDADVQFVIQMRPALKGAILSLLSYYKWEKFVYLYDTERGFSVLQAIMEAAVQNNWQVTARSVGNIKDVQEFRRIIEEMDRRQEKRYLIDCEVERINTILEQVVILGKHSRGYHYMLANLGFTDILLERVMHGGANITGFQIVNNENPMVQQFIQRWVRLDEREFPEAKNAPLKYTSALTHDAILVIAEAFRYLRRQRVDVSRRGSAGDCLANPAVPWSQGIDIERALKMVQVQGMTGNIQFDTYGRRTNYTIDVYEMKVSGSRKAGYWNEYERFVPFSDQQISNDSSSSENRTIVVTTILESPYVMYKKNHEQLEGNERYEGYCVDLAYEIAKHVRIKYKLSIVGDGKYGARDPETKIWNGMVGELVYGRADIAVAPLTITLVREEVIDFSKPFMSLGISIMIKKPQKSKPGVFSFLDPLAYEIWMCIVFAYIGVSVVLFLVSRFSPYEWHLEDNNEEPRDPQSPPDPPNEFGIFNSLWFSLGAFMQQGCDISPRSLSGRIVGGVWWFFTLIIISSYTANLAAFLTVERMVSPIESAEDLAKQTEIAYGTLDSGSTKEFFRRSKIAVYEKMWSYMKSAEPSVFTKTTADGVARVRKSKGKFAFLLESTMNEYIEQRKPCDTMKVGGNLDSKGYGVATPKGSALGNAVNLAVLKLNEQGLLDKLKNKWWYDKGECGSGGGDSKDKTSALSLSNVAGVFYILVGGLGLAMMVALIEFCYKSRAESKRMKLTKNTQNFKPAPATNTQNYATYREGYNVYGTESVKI
Write it as a number; the unit nM goes unstated.

{"columns": ["compound", "endpoint_value"],
 "data": [
  ["CN1Cc2c(S(=O)(=O)N(C)C)cc3c(c2C1)NC(=O)C3N=O (configuration not stated)", 782],
  ["N[C@@H](Cn1cc(F)c(=O)[nH]c1=O)C(=O)O [(S)-5-Fluorowillardiine]", 18],
  ["C/C(=C\\C=C\\[C@@H](C)C(=O)O)[C@H]1CN[C@H](C(=O)O)[C@H]1CC(=O)O", 3540]
]}

[in] Ki of `O=C1N=c2cc(N(O)O)c(-n3ccnc3)cc2=NC1=O` on UniProtKB P19492?
[out] 407
